Hey, just so you know, these numbers are from patent US20260098033A1.

ASSAY METHOD TEXT: Pharmacokinetic study in beagle dogs, oral administration
Type: in vivo, beagle dog
CONDITIONS: male beagle dog, 1 mg/kg, plasma
ASSAY METRIC: AUC(0-t) (ng·h/mL)
Give your result in ng·h/mL as a bare value.

## Task I have this compound here, OC[C@H]1O[C@@H](c2cc(Cc3ccc(C4CC4)cc3)c(Cl)c3c2CCO3)[C@H](O)[C@@H](O)[C@@H]1O [Crystalline form E of enavogliflozin, enavogliflozin] , and I need its recorded AUC(0-t).
## Result 4540

---

ASSAY METHOD TEXT: Pharmacokinetic study in beagle dogs, oral administration
Assay type: in vivo, beagle dog
CONDITIONS: male beagle dog, 1 mg/kg, plasma
ASSAY METRIC: AUC(0-inf) (µg·h/mL)
Give your result in µg·h/mL as a bare value.

## Task I have this compound here, OC[C@H]1O[C@@H](c2cc(Cc3ccc(C4CC4)cc3)c(Cl)c3c2CCO3)[C@H](O)[C@@H](O)[C@@H]1O [Crystalline form E of enavogliflozin, enavogliflozin] , and I need its recorded AUC(0-inf).
## Result 4.82
